Reference source: paper PMC12462367

MIC: recorded values
Test system: S. aureus MRSA2
READOUT_TYPE: MIC

>>> observed("CCN(CC)c1ccc(C=NNC(=O)c2ccccc2)c(O)c1 [D1]")
"> 256 µg/mL"
>>> observed("CCN(CC)c1ccc(C=Nc2cc(C)c(Br)cn2)c(O)c1 [D10]")
"> 256 µg/mL"
>>> observed("CN[C@H](CC(C)C)C(=O)N[C@H]1C(=O)N[C@@H](CC(N)=O)C(=O)N[C@H]2C(=O)N[C@H]3C(=O)N[C@H](C(=O)N[C@H](C(=O)O)c4cc(O)cc(O)c4-c4cc3ccc4O)[C@H](O)c3ccc(c(Cl)c3)Oc3cc2cc(c3O[C@@H]2O[C@H](CO)[C@@H](O)[C@H](O)[C@H]2O[C@H]2C[C@](C)(N)[C@H](O)[C@H](C)O2)Oc2ccc(cc2Cl)[C@H]1O [Vancomycin]")
"2 µg/mL"
>>> observed("CCN(CC)c1ccc(C=O)c(O)c1 [C, 4-(diethylamino)-2-hydroxybenzaldehyde]")
"> 256 µg/mL"
>>> observed("CCN(CC)c1ccc(C=Nc2cc(C)ccc2O)c(O)c1 [D9]")
"> 256 µg/mL"
>>> observed("CCN(CC)c1ccc(C=NNC(=O)c2ccc(C)cc2)c(O)c1 [D3]")
"> 256 µg/mL"
>>> observed("CCN(CC)c1ccc(C=NNC(=O)c2ccccn2)c(O)c1 [D5]")
"8 µg/mL"
>>> observed("CCN(CC)c1ccc(C=NNC(=O)c2ccncc2)c(O)c1 [D2]")
"> 256 µg/mL"
